The values you see were collected from patent US9029337B2.

Form field: % Inhibition (one value per entry).
# Test system: human Factor 7 mRNA
# procedure-text: Antisense inhibition of human Factor 7 mRNA in HepB3 cells, 50 nM antisense oligonucleotide, lipofectin
# Type: cell-based
# condition-summary: Table 1, 50 nM, lipofectin, approximately 24 hours, relative to untreated control cells
Strand notation (5' to 3'): a small letter for the sugar, then the base; units joined by * are phosphorothioate-linked, units joined directly phosphodiester-linked; [ ] holds rarer units or linkages, { } end groups; capitals alone tell only the bases. e = 2'-O-(2-methoxyethyl) (MOE); [5mC] = 5-methylcytosine; d = 2'-deoxy (DNA)

- substance: "407606 (antisense e[5mC]*eT*eG*eG*eT*d[5mC]*d[5mC]*dT*dT*dG*d[5mC]*dA*dG*dG*dA*eG*e[5mC]*e[5mC]*e[5mC]*e[5mC]) [compound 407606]"
  % Inhibition / %: 89
- substance: "407610 (antisense eA*eG*eG*eG*eA*dG*dG*d[5mC]*dA*dG*dA*dA*dG*d[5mC]*dA*eG*eA*eT*eA*eT) [compound 407610]"
  % Inhibition / %: 31
- substance: "407631 (antisense eG*eG*eG*e[5mC]*eA*d[5mC]*d[5mC]*dA*d[5mC]*dA*dT*dG*dG*dT*d[5mC]*eA*eG*eT*eG*eA) [compound 407631]"
  % Inhibition / %: 66

====

# System: human Factor 7 mRNA
# procedure-text: Antisense inhibition of human Factor 7 mRNA in HepB3 cells, 50 nM antisense oligonucleotide, lipofectin
# Type: cell-based
# condition-summary: Table 6, 50 nM, lipofectin, approximately 24 hours
Strand notation (5' to 3'): a small letter for the sugar, then the base; units joined by * are phosphorothioate-linked, units joined directly phosphodiester-linked; [ ] holds rarer units or linkages, { } end groups; capitals alone tell only the bases. e = 2'-O-(2-methoxyethyl) (MOE); [5mC] = 5-methylcytosine; d = 2'-deoxy (DNA)
value-type: % Inhibition (%)

- substance: "422125 (antisense e[5mC]*eT*eG*eA*eG*d[5mC]*dG*d[5mC]*dG*dG*dA*dA*dG*dA*dA*eG*eG*eG*eA*e[5mC]) [compound 422125]"
  unit-abbrev: "%"
  result: 8
- substance: "422189 (antisense e[5mC]*eG*e[5mC]*dG*dG*dA*dA*dG*dA*dA*dG*dG*dG*dA*d[5mC]*dG*dG*eA*eA*eG) [compound 422189]"
  unit-abbrev: "%"
  result: 0
- substance: "422126 (antisense eA*e[5mC]*eT*eG*eA*dG*d[5mC]*dG*d[5mC]*dG*dG*dA*dA*dG*dA*eA*eG*eG*eG*eA) [compound 422126]"
  unit-abbrev: "%"
  result: 22
- substance: "422270 (antisense eT*eG*dA*dG*d[5mC]*dG*d[5mC]*dG*dG*dA*dA*dG*dA*dA*dG*eG*eG*eA*e[5mC]*eG) [compound 422270]"
  unit-abbrev: "%"
  result: 15
- substance: "422199 (antisense eG*eG*eT*dT*dA*d[5mC]*dT*dG*dA*dG*d[5mC]*dG*d[5mC]*dG*dG*dA*dA*eG*eA*eA) [compound 422199]"
  unit-abbrev: "%"
  result: 65
- substance: "422272 (antisense eA*e[5mC]*dT*dG*dA*dG*d[5mC]*dG*d[5mC]*dG*dG*dA*dA*dG*dA*eA*eG*eG*eG*eA) [compound 422272]"
  unit-abbrev: "%"
  result: 12
